Task for the reader: assign each of the following compounds its reported melting point.

Lab note: `COc1ccc2c(=O)c(CO)cn(C)c2c1` gave melting point of 164 to 166 °C

Lab note: `CC(C)(C)OC(=O)NCCC(=O)c1c(Cl)cccc1[Si](C)(C)C` gave melting point of 51 to 52 °C

Lab note: `CCCCCCCCCCCCCCCCNc1ccc(C=O)cc1` gave melting point of 66.5 to 67.5 °C

Lab note: `O=C(NNC(=O)c1ccccn1)c1ccccn1` gave melting point of 224 to 225 °C

Lab note: O=C1NOc2cccc3nc4c(c(c23)C1Cc1ccccc1)CCCC4 (stereo not given) gave melting point of 166 to 168 °C

Lab note: O=C1c2ccc(O)cc2CCC1Cc1ccccc1 (stereo not given) gave melting point of 160 to 162 °C

Lab note: `COc1ccc(CC#N)c2c1OC(C)(C)O2` gave melting point of 58 to 59 °C

Lab note: CC(C)(COc1ccc(CNC(=O)C2Cc3ccccc3N2S(=O)(=O)c2ccc(-c3cccc(C(F)(F)F)c3)cc2)cc1)C(=O)O (stereo not given) gave melting point of 95 to 105 °C

Lab note: `CC(C)(C)C(=O)Nc1nc(O)c2cc(C#Cc3ccc(C(=O)O)cc3)cnc2n1` gave melting point of > 250 °C

Lab note: CS(=O)c1ccc(OCc2ccccc2)c(CCCc2ccc(C(=O)NCCO)cc2)c1 (stereo not given) gave melting point of 105 to 108 °C

---

test-readout: melting point

Lab note: `CCCCCCNC(=N)NC#N` gave melting point of 103 to 105 °C

Lab note: `Nc1ccc(-c2noc(-c3cnn4c(C(F)(F)F)cc(-c5ccc(C(F)(F)F)c(Cl)c5)nc34)n2)cn1` gave melting point of 234 °C

Lab note: `COc1ccccc1P(CC(CCCCCCO)CP(c1ccccc1OC)c1ccccc1OC)c1ccccc1OC` gave melting point of 47 to 50 °C

Lab note: `Clc1ncc(Cl)c(-c2ccc(Cl)c(Cl)c2)n1` gave melting point of 125 to 126 °C

Lab note: `COC(=O)C(=O)CC(=O)c1ccc(Cc2ccc(Cl)c(Cl)c2)cc1` gave melting point of 104 to 106 °C

---

test-readout: melting point

Lab note: `COC(=O)c1ccc2cc(CCCCCc3cc4ccc(C(=O)OC)cc4o3)oc2c1` gave melting point of 83 to 85 °C

Lab note: `COc1ccc(CN(C)CCc2ccc(NC(=O)c3cccc4c(=O)c5ccccc5sc34)cc2)cc1OC` gave melting point of 180 °C

Lab note: `CC(C)(C)Sc1c(CC(C)(C)C(=O)O)n(Cc2ccc(Cl)cc2)c2ccc(OCc3cccnc3)cc12` gave melting point of 206 to 208 °C

Lab note: `COc1ccc2c(n1)c(CCNC(C)=O)c1n2CCCC1` gave melting point of 89 to 90 °C

Lab note: `CCN(CC)CCCNC(=O)Cn1ncc(-c2ccc(C#N)cc2)c1-c1ccccc1` gave melting point of 100 to 101 °C

---

Task for the reader: assign each of the following compounds its reported melting point.

Lab note: `Cc1ccc(C)n1-c1ccc2ccc3[nH]c(=O)c(=O)n(CC(=O)Nc4ccccc4)c3c2c1` gave melting point of > 260 °C

Lab note: `Nc1ccc2ncc(Br)cc2n1` gave melting point of 168 to 169 °C

Lab note: `Cc1oc(-c2cccs2)nc1COc1ccc(CON=C(CCCCCCC(=O)O)c2ccccc2)cc1` gave melting point of 106 to 108 °C

Lab note: CC(=O)Nc1c(C)c(C)c2c(c1C)CC(C)(CN1CCC(c3ccccc3)CC1)O2 (stereo not given) gave melting point of 94 to 96 °C

Lab note: `CC(C)(C)c1ccc(CC2CCN(C(=O)C(=O)Nc3ccc4[nH]c(=O)oc4c3)CC2)cc1` gave melting point of 168 °C

Lab note: `CCOc1ccccc1CNC(=O)[C@@H]1CCCN(c2cccc3c2C(=O)N(Cc2ccncc2)C3=O)C1` gave melting point of 194 to 195 °C

Lab note: `Cn1cc(C(=O)NCc2ccc(Cl)cc2)c(=O)c2cc(CCl)cc(I)c21` gave melting point of 237 to 239 °C

Lab note: `CCCCCC(=O)Oc1ccc(-c2ccc(C#N)cc2)cc1` gave melting point of 56.1 °C

Lab note: CCCCCCCC(CCCCCCCCC(CCCCCCC)NC(C)=O)NC(C)=O (stereo not given) gave melting point of 158 to 162 °C

Lab note: `COC(=O)C1=C(C(=O)OC)c2c(sc3ccccc23)CC1` gave melting point of 129 °C
